This collection of values is drawn from PubChem BioAssay (NCI).

System: EKVX NSCLC
Assay: NCI-60 one-dose screen, 48 h (100 = growth as untreated, 0 = no growth, -100 = all killed)
Details: 10 µM unless noted
About 83,000 compounds went through this panel and 20% of them were active in at least one assay; those are over-represented in the sample as a whole.
result type: growth (%)

compound=Cc1cc2c(O)c(-c3cccc(Cl)c3)c3sc(=O)oc3c2cc1C recorded_number=93.9
compound=COc1ccc(Cc2cc(-c3ccccc3)nn(Cc3ccccc3)c2=O)cc1OC recorded_number=14.4
compound=CN[C@]12CC3(C=CC(=O)C=C3)O[C@@]1(Cc1ccc(OC)cc1)N(C)C(=O)N2 recorded_number=96
compound="CNc1nc(S(=O)c2ccc(C#N)cc2)nc2ccccc12 (stereo not given)" recorded_number=82.2
compound="CCCCCCCCCCCCCCCC(N)c1ccccc1 (stereo not given)" recorded_number=25.3
compound="COc1ccc(C2c3sc4c(F)cccc4c3Oc3nc[nH]c(=O)c32)cc1 (stereo not given)" recorded_number=71.2
compound=CCOc1ccc(NC(=O)CSc2oc(-c3ccccc3)nc2S(=O)(=O)c2ccc(F)cc2)cc1 recorded_number=82.7
compound=O=C1c2c(c3c4ccc(Br)cc4oc3c3[nH]c4ccccc4c23)C(=O)N1O recorded_number=66.6
compound=O=C(O)CCCN1C(=O)/C(=C/C(Cl)=C/c2ccccc2)SC1=S recorded_number=40.2
compound=O=C1/C(=C/c2cccs2)SC(=S)N1CCCN1CCOCC1 recorded_number=94.8
compound=CCOC(=O)c1nc(Nc2ccc(NC(=O)Nc3ccc(F)cc3)cc2)c2ccccc2n1 recorded_number=97.4
compound=C=C1C(=O)O[C@H]2[C@H]1CC/C(COC(=O)CSCCSCC(=O)OC/C1=C/CC[C@@]3(C)O[C@H]3[C@H]3OC(=O)C(=C)[C@@H]3CC1)=C\CC[C@@]1(C)O[C@@H]21 recorded_number=11
compound=CCc1n(Cc2ccc3ccccc3c2)cc[n+]1Cc1ccc2ccccc2c1 recorded_number=11.9
compound="COc1cc(OC)cc(C2=C3CC[C@@H]4[C@H](CC[C@]5(C)C(=O)CC[C@@H]45)C3=CC3C(O)c4cccnc4N4C(=O)COC234)c1 (stereo not given in full)" recorded_number=101
compound=CCN(CC)CCCN1C(=O)c2c(c(C)c3c(oc4cc(O)ccc43)c2C)C1=O recorded_number=108
compound=Fc1cccc(CNc2c3ccccc3nc3ccccc23)c1F recorded_number=62.9
compound=CC1=NN(c2nc(SCC(=O)Nc3nc4ccc(C)cc4s3)nc(-c3ccccc3)c2C#N)C(=O)C1 recorded_number=106
compound=CCCCCCCCn1ccc2cc(NC(=O)Cn3cc(CN4CCCCC4)nn3)ccc21 recorded_number=85
compound=CCOC(=O)CSc1ncnc2c1c(-c1ccccc1)c(-c1ccccc1)n2-c1ccc(C)cc1 recorded_number=43.9
compound=O=C(Cn1cc(CN2C(=O)c3ccccc3S2(=O)=O)nn1)Nc1nc2ccccc2s1 recorded_number=105
